procedure-details: qHTS Screen of the MIPE 4.0 Collection Against Ewings Sarcoma (TC71) (AID 1259253); also: nearly all actives have a fitted effect of over 40% in size
run-conditions: TC71 Ewing sarcoma viability, CellTiter-Glo, 48 h; series mostly up to 45.8 µM
Records with an inconclusive call do not appear. Active and inactive are the calls of the source. Calls follow the shape of the dose curve; as a rule, active = well fitted inhibition curve with a large enough effect; inconclusive = small, poorly fitted or top-dose-only effect; inactive = no such curve, though single readings can be large or run the other way.
Outcome codes: class 1 = active, class 0 = inactive

[
  {
    "compound-smiles": "O=C(NCc1ccncc1)C12C[C@H]3C[C@@H](C1)CC(c1ccc(Cl)cc1)(C3)C2",
    "assigned-category": "class 1"
  },
  {
    "compound-smiles": "C[C@H]1[C@H](NC(=O)C(=NOC(C)(C)C(=O)O)c2csc(N)n2)C(=O)N1S(=O)(=O)O",
    "assigned-category": "class 0"
  },
  {
    "compound-smiles": "CCC(CC)[C@H](NC(C)=O)[C@@H]1[C@H](O)[C@@H](C(=O)O)C[C@@H]1N=C(N)N",
    "assigned-category": "class 0"
  },
  {
    "compound-smiles": "Cc1ccn(-c2ccc(-c3ncco3)cc2)c(=O)c1-c1ccc2nc(N)ncc2c1",
    "assigned-category": "class 1"
  }
]

Reference source for all entries: PubChem BioAssay (NCATS)
